Target: human MRGPR X4 (Homo sapiens)
Construct: expressed in transfected cells
Sequence (Q96LA9 whole entry): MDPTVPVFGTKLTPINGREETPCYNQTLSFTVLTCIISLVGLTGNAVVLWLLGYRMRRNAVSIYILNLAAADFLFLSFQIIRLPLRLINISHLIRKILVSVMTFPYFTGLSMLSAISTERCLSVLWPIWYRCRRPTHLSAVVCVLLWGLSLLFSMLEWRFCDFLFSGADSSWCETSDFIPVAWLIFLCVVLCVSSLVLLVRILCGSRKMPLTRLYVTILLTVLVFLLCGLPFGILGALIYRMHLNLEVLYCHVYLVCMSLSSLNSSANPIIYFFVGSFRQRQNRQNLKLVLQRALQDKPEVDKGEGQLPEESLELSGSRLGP
Test: MRGPR X4 antagonist activity, IP-One Gq HTRF assay in stably transfected HEK cells
Type: cell-based
Procedure: HEK cells stably transfected to express human MIRGPR X4 were maintained in an incubator at 37° C. with 5% CO2 and grown in DMEM media with 10% fetal bovine serum (FBS) and […] each of sodium pyruvate, Glutamax, penicillin/streptomycin, and Geneticin. […] Cells were plated in a 384-well assay plate at 20,000 cells per well in 12 μL of Opti-MEM and kept in an incubator overnight. […] The plate was read on a Molecular Devices SpectraMax iD5 plate reader. […]
Outcome Measure: IC50

Compound	Outcome Measure	Measured Value
Cc1ccc(Cn2nc(C(=O)NCCc3ccccn3)c3ccccc32)cc1 [Compound 63]	IC50	100 to 500 nM
Cc1ccc(Cn2nc(C(=O)NCCc3cn(C)c4ccccc34)c3ccccc32)cc1 [Compound 94]	IC50	1000 to 2500 nM
CC1(c2cn(CCNC(=O)c3nn(Cc4ccc(Cl)cc4)c4ccccc34)nn2)COC1 [Compound 139]	IC50	100 to 500 nM
O=C(NCCc1ccc(C(F)(F)F)nc1)c1cn(Cc2ccc(Cl)cc2)c2ccccc12 [Compound 197]	IC50	501 to 1000 nM
O=C(NCCc1ccccn1)c1nn(Cc2ccc(Cl)cc2)c2ccccc12 [Compound 23]	IC50	< 100 nM

Qu. State, in one line, measured IC50 of O=C(NCCc1nnc2ccccn12)c1nn(CCc2ccc(Cl)c(Cl)c2)c2ccccc12 [Compound 505]
Ans. 1000 to 2500 nM

Qu. State, in one line, measured IC50 of O=C(NCCc1ccon1)c1nn(Cc2ccc(Cl)cc2)c2ccccc12 [Compound 100]
Ans. 1000 to 2500 nM

Qu. State, in one line, measured IC50 of Cc1cccc(CCNC(=O)c2nn(Cc3ccc(Cl)cc3)c3ccccc23)n1 [Compound 55]
Ans. 100 to 500 nM

Qu. State, in one line, measured IC50 of O=C(NCCc1ccc(F)cc1)c1cn(Cc2ccc(Cl)cc2)c2ccccc12 [Compound 179]
Ans. 100 to 500 nM

Qu. State, in one line, measured IC50 of N#Cc1ccc(CNC(=O)c2nn(Cc3ccc(Cl)cc3)c3ccccc23)nc1 [Compound 404]
Ans. 1000 to 2500 nM
